assay-summary: NCI Yeast Anticancer Drug Screen. Data for the sgs1 mgt1 strain (AID 161);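 note: 0% = growth of cultures given vehicle only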
assay-conditions: S. cerevisiae sgs1 mgt1 strain, at 5.0 µM (retest, dose inferred, filed as 0.5)
The panel holds about 79,000 compounds, 15% with a hit somewhere; the sample as a whole holds those more often. The source made the active and inactive calls. Cut-off read from the data, not from the text of the source: active = growth inhibition above about 70%; inactive = the rest.
One label from this list, please: yes (1) (active), no (0) (inactive)

Solved cases (4 shown):
{"compound": "CCc1cccc(C(C)C)c1N1C(=O)C(=O)C(c2nc3ccccc3s2)C(=O)C1=O", "qualitative-label": "yes (1)"}
{"compound": "Cc1c2cnccc2c(C)c2c1c1ccccc1n2CCCCCCNCc1ccccc1", "qualitative-label": "no (0)"}
{"compound": "CCOc1ccc(N=Nc2c(C)nn(C(=S)SC)c2OCC)cc1", "qualitative-label": "no (0)"}
{"compound": "COc1cc(C2C(Cl)C(=O)N2NC(=O)c2ccc(NC(C)=O)cc2)cc(OC)c1OC (stereo not drawn)", "qualitative-label": "no (0)"}

-- ask Which outcome was assigned to O=c1c2ccccc2sc2c([N+](=O)[O-])ccc(NCCNCCO)c12 in this test?
-- reply no (0)

-- ask Which outcome was assigned to CN1CCC(OC(=O)c2ccc3ncccc3c2)CC1 in this test?
-- reply no (0)

-- ask Which outcome was assigned to CCCCCC/C=C1\CCC(CN2CCOCC2)C1=O (stereo not drawn) in this test?
-- reply no (0)

====

Please respond with reported growth inhibition for every item in the list.
assay-summary: NCI Yeast Anticancer Drug Screen. Data for the bub3 strain (AID 167)
assay-conditions: S. cerevisiae bub3 mutant strain, at 50.0 µM (retest, dose inferred, filed as 5.0), stronger effect = higher value
About 79,000 compounds went through this panel and 15% of them were active in at least one assay; those are over-represented in the sample as a whole.
Answers are plain numbers, in %.

Could you tell me growth inhibition for each of these compounds? They are listed below.
1. CCOC(=O)/C=C(\CC(=O)OCC)C(=O)OCC
2. CC1/C(=N\O)CC(c2ccccc2)N(C)C1c1ccccc1 (stereo unspecified)
3. Clc1ccccc1C=Nc1cccc2ccccc12

-- reply
[25, 96, -3]

Could you tell me growth inhibition for each of these compounds? They are listed below.
1. COc1ccc(/C=C2/C(=O)NC3SC=C(c4cccc([N+](=O)[O-])c4)N23)cc1 (stereo unspecified)
2. NC(=S)N1N=C2c3ccccc3CCC[C@H]2[C@@H]1c1ccccc1
3. O=C(N/N=C/c1cc(Cl)cc(Cl)c1O)c1ccccc1

-- reply
13
47
30

====

assay-summary: NCI Yeast Anticancer Drug Screen. Data for the mlh1 rad18 strain (AID 175)
assay-conditions: S. cerevisiae mlh1 rad18 strain growth inhibition; at 5.0 µM (retest, dose inferred, filed as 0.5); stronger effect = higher value
The panel holds about 79,000 compounds, 15% with a hit somewhere; the sample as a whole holds those more often.
measured-quantity: growth inhibition (%)
Answers are plain numbers, in %.

Record excerpt, results attached:
{"molecule": "Cc1ccc(S(=O)(=O)Nc2ccccc2SSc2ccccc2NS(=O)(=O)c2ccc(C)cc2)cc1", "value-units": "%", "recorded-number": 63}
{"molecule": "O=C(/C(Cl)=N/O)c1ccccc1", "value-units": "%", "recorded-number": 62}
{"molecule": "Cc1cc(SCC(=O)c2ccccc2)cc(C)[o+]1", "value-units": "%", "recorded-number": 1}
{"molecule": "COc1cc(/C=C/C(=N\\NC(=O)c2ccccc2)c2sc(Nc3ccc(Cl)c(Cl)c3)nc2C)ccc1O", "value-units": "%", "recorded-number": 30}
{"molecule": "C1C[OH+]CC[OH+]CCNCC[OH+]CC[OH+]CCN1.[Cl-].[Pt+4]", "value-units": "%", "recorded-number": 43}

Could you tell me growth inhibition for each of these molecules? They are listed below.
1. O=NN(CCCl)C(=O)Oc1ccc(OC(=O)N(CCCl)N=O)cc1
2. CCCCCC(C)[P+](c1ccccc1)(c1ccccc1)c1ccccc1 (stereo not given)
3. CCCCCCCCCCCCNC(=O)c1ccc[n+](Cc2ccc(Cl)c(Cl)c2)c1

-- reply
1. 96
2. 45
3. 99

====

assay-summary: NCI Yeast Anticancer Drug Screen. Data for the mlh1 rad18 strain (AID 175)
assay-conditions: S. cerevisiae mlh1 rad18 strain growth inhibition; at 50.0 µM
This is part of a sample that, as a whole, favours compounds with a hit. Of some 79,000 tested, about 15% had one in any assay. Active and inactive are the calls of the source. Cut-off read from the data, not from the text of the source: active = growth inhibition above about 70%; inactive = the rest.
One label from this list, please: active, inactive

Solved cases (10 shown):
{"compound": "O=C(NC1CCN(Cc2ccccc2)CC1)c1ccc(I)cc1", "qualitative-label": "active"}
{"compound": "Nc1nc(-c2ccccn2)cc2cc(Cl)ccc12", "qualitative-label": "inactive"}
{"compound": "CC(=O)C1CCCCC1/C=C/[N+](=O)[O-] (configuration not stated)", "qualitative-label": "active"}
{"compound": "O=C(/C(=C\\c1ccccc1)c1ccccc1)c1ccc(Br)cc1", "qualitative-label": "inactive"}
{"compound": "CN(C)c1ccc(SC(=S)NCc2ccccc2)cc1", "qualitative-label": "active"}
{"compound": "O=C1C=CC(=O)N1c1ccc(-c2ccc(N3C(=O)C=CC3=O)cc2)cc1", "qualitative-label": "inactive"}
{"compound": "O=C1Nc2ccccc2SC1c1ccccc1 (configuration not stated)", "qualitative-label": "active"}
{"compound": "Oc1cccc2ccncc12", "qualitative-label": "inactive"}
{"compound": "CCOC(=O)N1CCN(CCCCCCOc2c(Cl)cc(Cl)cc2Cl)CC1", "qualitative-label": "active"}
{"compound": "N=C1C(=O)c2ccccc2-c2ccccc21", "qualitative-label": "active"}

-- ask Which outcome was assigned to ClCc1ccc(OCc2ccccc2)c(OCc2ccccc2)c1 in this test?
-- reply active

-- ask Which outcome was assigned to COc1ccc(/C(=N/NC(N)=O)C(c2ccc(OC)cc2)C2C(=O)Oc3ccccc32)cc1 (configuration not stated) in this test?
-- reply active

====

Please respond with reported growth inhibition for every item in the list.
assay-summary: NCI Yeast Anticancer Drug Screen. Data for the sgs1 mgt1 strain (AID 161);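 note: 0% = growth of cultures given vehicle only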
assay-conditions: S. cerevisiae sgs1 mgt1 strain, at 50.0 µM (retest, dose inferred, filed as 5.0), stronger effect = higher value
About 79,000 compounds went through this panel and 15% of them were active in at least one assay; those are over-represented in the sample as a whole.
Give bare numbers, in %.

Record excerpt, results attached:
{"compound": "CC(C)N(C(=O)C12C3C4C5(C#N)C3C1(C#N)C5C42I)C(C)C (configuration not stated)", "value-units": "%", "recorded-number": 13}
{"compound": "Cc1cccc2c(C(=O)CBr)cc(-c3ccc(Cl)cc3)nc12", "value-units": "%", "recorded-number": 91}
{"compound": "Oc1cc2c(cc1C(Nc1ncccn1)c1ccc(F)cc1)OCO2 (configuration not stated)", "value-units": "%", "recorded-number": 77}
{"compound": "OC(c1ccccc1)c1cccc(Br)c1 (configuration not stated)", "value-units": "%", "recorded-number": 55}

Could you tell me growth inhibition for each of these compounds? They are listed below.
1. CSS(=O)(=O)c1ccc(C)cc1
2. O=C1C(Cl)=C(Cl)C(=O)C2CC=CCC12 (configuration not stated)

-- reply
1: 100; 2: 99

====

Please respond with reported growth inhibition for every item in the list.
assay-summary: NCI Yeast Anticancer Drug Screen. Data for the cln2 rad14 strain (AID 165);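 note: 0% = growth equal to vehicle treated cultures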
assay-conditions: S. cerevisiae cln2 rad14 strain, at 5.0 µM (retest, dose inferred, filed as 0.5), stronger effect = higher value
Compounds without any hit were thinned out: in the full panel of roughly 79,000, 15% have a hit.
Answers are plain numbers, in %.

{"molecule": "COC1CCC(/C(C#N)=C/c2ccco2)CC1 (stereo unspecified)", "value-units": "%", "growth inhibition": 22}
{"molecule": "COc1cccc(-c2cc(=O)c3c(C)ccnc3[nH]2)c1", "value-units": "%", "growth inhibition": -4}
{"molecule": "C=CS(=O)(=O)c1ccc(Cl)cc1", "value-units": "%", "growth inhibition": -42}
{"molecule": "COC(=O)Cc1nc2ccccc2s1", "value-units": "%", "growth inhibition": 13}
{"molecule": "CCCCCCCCN1C(=O)c2ccccc2S1(=O)=O", "value-units": "%", "growth inhibition": -17}

Could you tell me growth inhibition for each of these molecules? They are listed below.
1. CCOC(=O)C1=C(c2ccccc2)OC(N)=C(C#N)C1c1ccc(C)cc1 (stereo unspecified)
2. CC(=O)Oc1c(C2CCCCC2)cc([N+](=O)[O-])cc1[N+](=O)[O-]

-- reply
[-4, 79]

====

assay-summary: NCI Yeast Anticancer Drug Screen. Data for the sgs1 mgt1 strain (AID 161);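 note: 0% = growth of cultures given vehicle only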
assay-conditions: S. cerevisiae sgs1 mgt1 strain, at 50.0 µM (retest, dose inferred, filed as 5.0)
About 79,000 compounds went through this panel and 15% of them were active in at least one assay; those are over-represented in the sample as a whole. The source made the active and inactive calls. No stated cut-off is given here; in the data, active means growth inhibition above about 70%; inactive means the rest.
One label from this list, please: active, inactive

{"compound": "CCCCN(CCCC)C(=O)c1ccc(Cl)cc1Cl", "qualitative-label": "active"}
{"compound": "C=C1CC2(CCS(=O)(=O)c3ccccc32)OC1=O (stereo not drawn)", "qualitative-label": "inactive"}
{"compound": "CC(O)CCc1nc2ccccc2[nH]1 (stereo not drawn)", "qualitative-label": "inactive"}
{"compound": "C=C(C)COc1ccccc1C(OCC)OCC", "qualitative-label": "inactive"}
{"compound": "CC(C)(C)C(=O)OCC(=O)c1ccc(-c2ccccc2)cc1", "qualitative-label": "inactive"}
{"compound": "CC(CN(C)C)C(/C=C/c1ccc(Cl)cc1)=N\\NC(=O)c1ccccc1 (stereo not drawn)", "qualitative-label": "inactive"}
{"compound": "CC(/C=C/c1cccs1)=N\\NC(=S)NCC(C)C", "qualitative-label": "inactive"}
{"compound": "O=C(Nc1cc(-c2ccccc2)[nH]n1)c1ccccc1", "qualitative-label": "inactive"}

-- ask Which outcome was assigned to CN1C(=O)CCCCCCCCCCSc2ccccc21 in this test?
-- reply active

-- ask Which outcome was assigned to O=C(CC(=O)c1ccccc1)CC(O)(c1ccccc1)c1ccccc1 in this test?
-- reply active

-- ask Which outcome was assigned to O=C(NC1CCN(Cc2ccccc2)CC1)c1ccccc1I in this test?
-- reply active

-- ask Which outcome was assigned to CC(C)n1nnc2ccccc2c1=Nc1ccccc1 in this test?
-- reply active

-- ask Which outcome was assigned to CC1CCCC(CCN(C)CCC2CCCCC2)CC1 (stereo not drawn) in this test?
-- reply active

-- ask Which outcome was assigned to O=C(NCCCCCN1CCC2(CCCCC2)CC1)C(c1ccccc1)C1CCCCC1 (stereo not drawn) in this test?
-- reply active

-- ask Which outcome was assigned to O=C(Cc1nc2ccccc2s1)Nc1cccc(C(F)(F)F)c1 in this test?
-- reply active
